TESTED ON: TRPM2 (Homo sapiens)
Construct: host or cells: HEK-293
Sequence (O94759 whole entry): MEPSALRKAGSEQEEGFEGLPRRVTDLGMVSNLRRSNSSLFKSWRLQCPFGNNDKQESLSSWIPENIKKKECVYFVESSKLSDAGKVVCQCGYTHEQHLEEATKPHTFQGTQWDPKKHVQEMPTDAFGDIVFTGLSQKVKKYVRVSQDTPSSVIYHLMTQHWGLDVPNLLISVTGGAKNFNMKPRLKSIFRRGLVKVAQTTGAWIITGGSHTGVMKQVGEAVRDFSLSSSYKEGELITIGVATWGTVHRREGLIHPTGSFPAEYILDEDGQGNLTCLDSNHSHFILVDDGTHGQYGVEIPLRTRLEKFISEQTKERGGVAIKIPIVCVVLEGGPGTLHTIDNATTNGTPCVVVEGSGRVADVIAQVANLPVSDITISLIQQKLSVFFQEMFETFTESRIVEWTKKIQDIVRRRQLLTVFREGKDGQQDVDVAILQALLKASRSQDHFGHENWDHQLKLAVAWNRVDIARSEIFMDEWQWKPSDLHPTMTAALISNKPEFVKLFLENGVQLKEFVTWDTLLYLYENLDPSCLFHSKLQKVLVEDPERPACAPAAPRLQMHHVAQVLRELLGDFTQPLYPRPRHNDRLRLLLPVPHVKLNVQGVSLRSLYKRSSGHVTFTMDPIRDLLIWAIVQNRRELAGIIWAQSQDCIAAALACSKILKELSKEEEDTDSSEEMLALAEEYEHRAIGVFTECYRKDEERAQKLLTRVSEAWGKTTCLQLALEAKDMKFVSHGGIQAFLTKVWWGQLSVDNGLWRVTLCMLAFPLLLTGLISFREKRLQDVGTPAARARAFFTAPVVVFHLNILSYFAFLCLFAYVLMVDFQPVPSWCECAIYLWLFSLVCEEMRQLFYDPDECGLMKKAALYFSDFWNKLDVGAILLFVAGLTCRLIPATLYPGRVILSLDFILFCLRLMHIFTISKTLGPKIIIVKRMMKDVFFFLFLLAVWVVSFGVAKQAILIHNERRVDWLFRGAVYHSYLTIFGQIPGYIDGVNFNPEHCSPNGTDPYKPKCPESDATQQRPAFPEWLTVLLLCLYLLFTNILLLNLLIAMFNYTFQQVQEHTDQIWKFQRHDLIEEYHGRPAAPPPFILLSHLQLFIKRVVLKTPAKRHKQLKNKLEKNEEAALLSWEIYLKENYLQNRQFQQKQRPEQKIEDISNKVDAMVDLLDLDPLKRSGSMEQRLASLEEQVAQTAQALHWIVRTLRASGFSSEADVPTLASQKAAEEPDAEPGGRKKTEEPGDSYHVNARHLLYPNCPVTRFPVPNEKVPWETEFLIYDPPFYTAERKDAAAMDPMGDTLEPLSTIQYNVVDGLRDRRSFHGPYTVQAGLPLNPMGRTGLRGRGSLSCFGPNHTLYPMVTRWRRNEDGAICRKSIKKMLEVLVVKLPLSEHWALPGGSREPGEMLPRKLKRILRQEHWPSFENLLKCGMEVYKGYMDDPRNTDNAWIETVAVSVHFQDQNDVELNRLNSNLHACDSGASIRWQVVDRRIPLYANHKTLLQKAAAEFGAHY
MEASUREMENT DESCRIPTION: FLIPR (Calcium Assay Kit), HEK-293 expressing TRPM2
Assay type: cell-based
ASSAY SETUP: HEK-293_TRPM2
MEASURED QUANTITY: pEC50
Numbers only, as −log10 of the molar value.

Given the entry `COC1=C(N)C(=O)c2nc(-c3nc(C(=O)O)c(C)c(-c4ccc(OC)c(OC)c4O)c3N)ccc2C1=O` , report its measured pEC50.
5.37
